TARGET DESC: Platelet-activating factor receptor (Canis lupus familiaris)
METHOD: PAF-antagonist activity determined in dog platelets by PAF-binding assay
IC50 under 80 nM gets t, anything at or over 80 nM gets f.

# check: IC50 < 80 nM for Cc1nnc2n1-c1sc(C#CCn3c4c(c5cc(Cl)ccc53)CCCC4)cc1C(c1ccccc1Cl)=NC2 f

Regarding O=c1c2ccccc2c2ccccc2n1CC#Cc1cc2c(s1)-n1c(CO)nnc1CN=C2c1ccccc1Cl , kindly confirm whether its IC50 is beneath 80 nM. t

Hi there! Is IC50 for Cc1nnc2n1-c1sc(C#CCN3C(=O)COc4ccccc43)cc1C(c1ccccc1Cl)=NC2 below 80 nM, do you know? t

For Cc1nnc2n1-c1sc(C#CCn3cnc4ccccc43)cc1C(c1ccccc1Cl)=NC2 , is the recorded IC50 below the cut-off of 80 nM? t

Answer whether the compound Cc1nnc2n1-c1sc(C#CCn3ccc4ccccc4c3=O)cc1C(c1ccccc1Cl)=NC2 has IC50 strictly less than 80 nM t

Input Cc1nnc2n1-c1sc(C#CCN3C(=O)CCc4ccccc43)cc1C(c1cc([N+](=O)[O-])ccc1Cl)=NC2 ; condition: IC50 strictly below 80 nM. Does it hold? t

Does the reported IC50 of Cc1nnc2n1-c1sc(C#CCN3C(=O)NCc4ccccc43)cc1C(c1ccccc1Cl)=NC2 stay below 80 nM? t

hey, is IC50 for Cc1nnc2n1-c1ccc(C#CCN3C(=O)CCc4ccccc43)cc1C(c1ccc(Cl)cc1)=NC2 lower than 80 nM or not? f

# strict comparison: is reported IC50 < 80 nM? input = Cc1nnc2n1-c1ccc(C#CCN3C(=O)c4ccccc4C3=O)cc1C(c1ccccc1F)NC2 (stereo not drawn) f

State whether 80 nM exceeds IC50 recorded for Cc1nnc2n1-c1sc(C#CCn3c(=O)c4ccccc4c4ccccc43)cc1C(c1ccccc1Cl)=NC2O (stereo not drawn) . t

IC50 under 80 nM? Item: Cc1nnc2n1-c1sc(C#CCN3Cc4cccc5cccc(c45)C3=O)cc1C(c1ccccc1Cl)=NC2 t

Dear colleague, could you confirm whether IC50 of Cc1nnc2n1-c1sc(C#CCN3C(=O)COc4ccc(Cl)cc43)cc1C(c1ccccc1Cl)=NC2 falls below 80 nM? Thanks. t

Strictly below 80 nM: is that where IC50 of Cc1nnc2n1-c1ccc(I)cc1C(c1ccccc1Cl)=NC2 sits? f

Hi there! Is IC50 for Cc1nnc2n1-c1sc(C#CCn3c(=O)c4ccccc4c4ccccc4c3=O)cc1C(c1ccccc1Cl)=NC2 below 80 nM, do you know? t

Does this compound meet the criterion IC50 < 80 nM? Cc1nnc2n1-c1ccc(C#CCN3C(=O)c4ccccc4C3=O)cc1C(c1ccccc1Cl)=NC2 t

Please determine if COc1cc2c(cc1OC)C(=O)N(CC#Cc1cc3c(s1)-n1c(C)nnc1CN=C3c1ccccc1Cl)CC2 is below 80 nM in terms of IC50. t

Check if IC50 falls below 80 nM for Cc1nnc2n1-c1sc(C#CCn3c(=O)n(-c4ccccc4)c4ccccc43)cc1C(c1ccccc1Cl)=NC2 . t

Hello, is IC50 of the following compound strictly smaller than 80 nM? Cc1nnc2n1-c1sc(C#CCn3c(=O)c4ccccc4c4ccccc43)cc1C(c1ccccc1Cl)NC2=O (stereo not drawn) f
